- method_notes: Half life in human serum
- Assay type: ADME, cell-free
endpoint_label: half-life (h)
Answers are plain numbers, in h.

Query: Reported half-life, molecule CC(C)C[C@H](CN(C=O)[C@H](Cc1ccccc1)CN(C=O)CCN(C=O)CCN(C=O)[C@@H](CN)Cc1ccc(O)cc1)NS(C)(=O)=O : ____
Response: 41

Source: ChEMBL document CHEMBL2157908
